- EXPERIMENT: PK brain permeability after single oral gavage
- Assay type: in vivo, C57BL/6 mice
- STUDY_CONDITIONS: male, C57BL/6, mouse, plasma, po, 10 mg/kg, mice, 10 mg/kg oral, 2 hours post dose; total corrected for unbound fraction in plasma; read-out: free plasma conc.
READOUT_LABEL: concentration at 2 h (nM)

> print(dat)
                                   compound         readout.label  display.unit  observed
1  O=C(N[C@H]1CC[C@H](NCC(F)(F)F)CC1)c1nc(-n2ccnc2)nc2ncccc12 [Example 4]  concentration at 2 h            nM      2540
2  O=C(N[C@H]1CC[C@H](NCC(F)(F)F)CC1)c1nc(-n2ccnc2)nn2cccc12 [Example 29]  concentration at 2 h            nM       840
3  O=C(N[C@H]1CC[C@H](NCC(F)(F)F)CC1)c1cn2nccc2c(-n2ccnc2)n1 [Example 21]  concentration at 2 h            nM      2470
4  O=C(N[C@H]1CC[C@H](N2CCC(F)(F)C2)CC1)c1nc(-n2ccnc2)nn2cccc12 [Example 12]  concentration at 2 h            nM       788
5  O=C(N[C@H]1CC[C@H](NCC(F)(F)F)CC1)c1cn2ccnc2c(-n2ccnc2)n1 [Example 19]  concentration at 2 h            nM       954
6  O=C(N[C@H]1CC[C@H](N2CCC(F)(F)C2)CC1)c1cn2ccnc2c(-n2ccnc2)n1 [Example 41]  concentration at 2 h            nM      2160

[a] O=C(N[C@H]1CC[C@H](NCC(F)(F)F)CC1)c1cn2ncnc2c(-n2ccnc2)n1 [Example 20]
[b] O=C(N[C@H]1CC[C@H](N2CC[C@@H](F)C2)CC1)c1nc(-n2ccnc2)nn2cccc12 [Example 14]
// compare: a vs b , metric concentration at 2 h, want the smaller The response must carry the label of the picked entry.
b

----------
- EXPERIMENT: Tissue binding assay (equilibrium dialysis), brain homogenate
- Format: in vitro ADME
- STUDY_CONDITIONS: mouse brain homogenate, dialysis 4 hours at 37° C., pH 7.4
READOUT_LABEL: fraction unbound at 4 h

> print(dat)
                                chem.smiles  observed
1  O=C(N[C@H]1CC[C@H](NCC(F)(F)F)CC1)c1cn2nccc2c(-n2ccnc2)n1      0.34

[1] O=C(N[C@H]1CC[C@H](NCC(F)(F)F)CC1)c1cn2ccnc2c(-n2ccnc2)n1
[2] O=C(N[C@H]1CC[C@H](N2CC(F)(F)C2)CC1)c1cn2ncnc2c(-n2ccnc2)n1
[3] O=C(N[C@H]1CC[C@H](N2CC[C@@H](F)C2)CC1)c1nc(-n2ccnc2)nn2cccc12
[4] O=C(N[C@H]1CC[C@H](NCC(F)(F)F)CC1)c1nc(-n2ccnc2)nc2ncccc12
In this exercise, place the 4 molecules in ascending sequence of their recorded fraction unbound at 4 h. Returns: the labels listed in the requested order.
3, 2, 1, 4

----------
- EXPERIMENT: PK brain permeability after single oral gavage
- Assay type: in vivo, C57BL/6 mice
- STUDY_CONDITIONS: male, C57BL/6, mouse, plasma, po, 10 mg/kg, mice, 10 mg/kg oral, 2 hours post dose; read-out: total plasma conc.
READOUT_LABEL: concentration at 2 h (µM)

// below: answered compounds
> print(dat)
                                chem.smiles  display.unit  observed
1  O=C(N[C@H]1CC[C@H](NCC(F)(F)F)CC1)c1cn2nccc2c(-n2ccnc2)n1            µM      8.21
2  O=C(N[C@H]1CC[C@H](NCC(F)(F)F)CC1)c1nc(-n2ccnc2)nn2cccc12            µM      19.1
3  O=C(N[C@H]1CC[C@H](N2CC[C@@H](F)C2)CC1)c1nc(-n2ccnc2)nn2cccc12            µM      3.93
4  O=C(N[C@H]1CC[C@H](N2CC[C@H](F)C2)CC1)c1nc(-n2ccnc2)nn2cccc12            µM      3.66
5  O=C(N[C@H]1CC[C@H](NCC(F)(F)F)CC1)c1nc(-n2ccnc2)nc2ncccc12            µM      6.31

[P] O=C(N[C@H]1CC[C@H](NCC(F)(F)F)CC1)c1cn2ccnc2c(-n2ccnc2)n1
[Q] O=C(N[C@H]1CC[C@H](N2CCC(F)(F)C2)CC1)c1cn2ncnc2c(-n2ccnc2)n1
// compare: P vs Q , metric concentration at 2 h, want the smaller The response must carry the label of the picked entry.
P
